biological target: baculovirus-expressed JAK2 kinase (Homo sapiens, UniProt O60674); assay: biochemical; details: 0.2 μM ATP; read-out: JAK2 Potency
Sequence (O60674 whole entry): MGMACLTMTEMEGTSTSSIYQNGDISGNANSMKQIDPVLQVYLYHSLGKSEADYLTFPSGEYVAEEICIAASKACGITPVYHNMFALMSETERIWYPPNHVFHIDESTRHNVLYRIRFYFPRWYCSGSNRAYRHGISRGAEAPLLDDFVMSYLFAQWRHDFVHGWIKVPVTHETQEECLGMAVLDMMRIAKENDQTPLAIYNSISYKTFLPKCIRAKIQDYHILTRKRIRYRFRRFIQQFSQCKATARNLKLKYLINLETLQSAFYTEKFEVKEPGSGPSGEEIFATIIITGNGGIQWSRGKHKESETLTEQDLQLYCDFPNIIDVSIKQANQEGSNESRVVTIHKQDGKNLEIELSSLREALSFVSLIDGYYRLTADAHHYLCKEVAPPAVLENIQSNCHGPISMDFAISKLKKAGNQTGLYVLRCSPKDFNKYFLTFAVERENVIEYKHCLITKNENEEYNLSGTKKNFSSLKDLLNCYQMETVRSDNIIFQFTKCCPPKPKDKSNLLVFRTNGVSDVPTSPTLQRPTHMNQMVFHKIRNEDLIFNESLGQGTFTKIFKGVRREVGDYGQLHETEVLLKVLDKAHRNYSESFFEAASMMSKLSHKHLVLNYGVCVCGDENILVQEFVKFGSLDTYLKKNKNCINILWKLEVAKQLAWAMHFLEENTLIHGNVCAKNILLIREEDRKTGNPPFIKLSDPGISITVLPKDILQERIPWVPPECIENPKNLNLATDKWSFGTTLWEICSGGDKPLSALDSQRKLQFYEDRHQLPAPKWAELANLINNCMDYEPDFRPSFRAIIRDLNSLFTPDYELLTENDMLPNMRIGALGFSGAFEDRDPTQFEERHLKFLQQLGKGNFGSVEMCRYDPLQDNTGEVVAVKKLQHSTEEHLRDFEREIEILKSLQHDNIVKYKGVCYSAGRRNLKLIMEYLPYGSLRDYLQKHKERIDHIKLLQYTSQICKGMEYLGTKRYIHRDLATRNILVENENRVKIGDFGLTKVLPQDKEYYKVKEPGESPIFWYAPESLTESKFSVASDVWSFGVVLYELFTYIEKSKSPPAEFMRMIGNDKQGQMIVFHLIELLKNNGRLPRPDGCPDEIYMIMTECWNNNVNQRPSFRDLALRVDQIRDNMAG
recordedEndpoint: IC50

| compound | assayTarget | IC50 |
| --- | --- | --- |
| Cn1cc(-c2nc3c(NC45CCC(C)(C(=O)C4)C5(C)C)c(Cl)cnc3[nH]2)cn1 (stereo not shown) [Compound CXCIX] | baculovirus-expressed JAK2 kinase (Homo sapiens, UniProt O60674) | < 100 nM |
| COc1cc(CN2CCOCC2)ccc1-c1nc2c(N[C@H]3[C@@H](CO)[C@@H]4C=C[C@H]3C4)c(Cl)cnc2[nH]1 [Compound LII] | baculovirus-expressed JAK2 kinase (Homo sapiens, UniProt O60674) | 100 to 1000 nM |
| COc1ccc(-c2nc3c(N[C@H]4[C@@H](C(N)=O)[C@@H]5C=C[C@H]4C5)c(Cl)cnc3[nH]2)cc1 [Compound VI] | baculovirus-expressed JAK2 kinase (Homo sapiens, UniProt O60674) | < 100 nM |

Now take the following compound into account.
// IC50 value for CN1CCC(Oc2ccc(-c3nc4c(N[C@H]5[C@@H](C(N)=O)[C@@H]6C=C[C@H]5C6)c(Cl)cnc4[nH]3)cc2)CC1 [Compound CCXLV] : < 100 nM
